Reference source for all entries: patent US20130096067A1

- System: Raf-1^gof intestinal tumors
- Method Summary: Luciferase screen of FDA-approved (NCI) drugs in 96-well plates, flies with Raf-1^gof intestinal tumors; further: test concentration or dose not given here
- Assay type: in vivo, Drosophila
- Measurement Setup: log2 of the Day 3 fold difference in luciferase relative to DMSO controls
Where a name gives a salt, the structure may show the parent alone.
Assign class by Log2 (fold): not lower than -0.6 means satisfied; lower than -0.6 means not satisfied.

Previously resolved entries follow.
Molecule | Discrete Label
CS(=O)(=O)OCCCCOS(C)(=O)=O | satisfied
CC[C@]1(O)C[C@@H]2CN(CCc3c([nH]c4ccccc34)[C@@](C(=O)OC)(c3cc4c(cc3OC)N(C)[C@H]3[C@@](O)(C(=O)OC)[C@H](OC(C)=O)[C@]5(CC)C=CCN6CC[C@]43[C@@H]65)C2)C1 [Vinblastine sulfate] | not satisfied
Nc1nc(Cl)nc2c1ncn2[C@H]1C[C@H](O)[C@@H](CO)O1 | satisfied

Note: attention shifts to another entry.
Determine whether this molecule has Log2 (fold) no lower than -0.6: Nc1ncn([C@@H]2O[C@H](CO)[C@@H](O)[C@H]2O)c(=O)n1
satisfied
